tested on: CCK receptor (pancreas) (Rattus norvegicus, UniProt P30551)
Construct: The whole pancreas of a male Sprague-Dawley rat
Sequence (P30551 1-444): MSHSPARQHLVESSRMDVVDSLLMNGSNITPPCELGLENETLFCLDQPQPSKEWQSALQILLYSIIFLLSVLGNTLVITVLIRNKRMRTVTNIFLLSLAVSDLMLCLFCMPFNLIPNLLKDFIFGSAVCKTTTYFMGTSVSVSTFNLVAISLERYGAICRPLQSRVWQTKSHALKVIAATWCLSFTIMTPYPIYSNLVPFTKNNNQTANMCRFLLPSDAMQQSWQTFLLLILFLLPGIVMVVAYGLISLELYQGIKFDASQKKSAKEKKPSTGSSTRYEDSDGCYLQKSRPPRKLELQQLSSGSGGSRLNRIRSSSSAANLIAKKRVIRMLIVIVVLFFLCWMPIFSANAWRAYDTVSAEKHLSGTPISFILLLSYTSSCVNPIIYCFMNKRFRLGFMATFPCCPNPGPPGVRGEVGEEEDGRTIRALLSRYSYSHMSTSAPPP
test summary: CCK receptor binding (pancreas) method; I-CCK-8 pancreas assay (CCK-antagonism)
experimental setup: 125I-CCK binding, rat pancreas membranes, 37° C., 30 minutes; read-out: Anti-CCK Activity IC50
Label key: true means IC50 under 1000 nM; false means IC50 of 1000 nM or more.

Determine if CC(=O)N1[C@H]2N(C(=O)[C@@H]1CC(C)C)c1ccccc1[C@@]2(O)C[C@@H]1NC(=O)c2ccccc2-n2c1nc1ccccc1c2=O shows IC50 strictly lower than 1000 nM.
false

Determine if CC(C)C[C@H]1C(=O)N2c3ccccc3[C@@](O)(C[C@@H]3NC(=O)c4ccccc4N4C(=O)c5ccccc5NC34)[C@H]2N1O (some centres unmarked) [Example 5, hydrate] shows IC50 strictly lower than 1000 nM.
true

Determine if CC(C)C[C@H]1C(=O)N2c3ccccc3[C@@](O)(C[C@@H]3NC(=O)c4ccccc4N4C(=O)c5ccccc5NC34)[C@H]2N1C(=O)C(CCCNC(=O)OCc1ccccc1)NC(=O)OC(C)(C)C (some centres unmarked) [Example 11, hydrate] shows IC50 strictly lower than 1000 nM.
false

Determine if CC(C)CC1C(=O)N2c3ccccc3C(O)(CC3NC(=O)c4ccccc4-n4c3nc3ccccc3c4=O)C2N1CCCc1ccccc1 (centres unmarked) [Example 6, sesquihydrate] shows IC50 strictly lower than 1000 nM.
true

Determine if CC(C)C[C@H]1C(=O)N2c3ccccc3[C@@](O)(C[C@@H]3NC(=O)c4ccccc4-n4c3nc3ccccc3c4=O)[C@H]2N1C(=O)[C@H](Cc1ccc(O)cc1)NC(=O)OC(C)(C)C [Example 8, hemihydrate] shows IC50 strictly lower than 1000 nM.
false
